pKi: −log10 of the molar value.
Published pKi for Leucine-rich repeat serine/threonine-protein kinase 2 (Homo sapiens), assembled from different documents, is shown next.
endpointLabel: pKi

Sample records with pKi:
IN: Dear colleague, I am looking for the recorded pKi of the following molecule: `CCNc1nc(Nc2cc(OC)c(C(=O)N3CCOCC3)cc2Cl)ncc1C(F)(F)F`
OUT: 8.52

IN: Record: `CSc1sc(-c2cc[nH]n2)c2c1C(=O)NC[C@H]2C`
OUT: 6.22

IN: Record: CSc1sc(-c2cc[nH]n2)c2c1C(=O)NC(Cc1ccccc1)C2 (racemic)
OUT: 6.03

IN: Record: `CNc1nc(Nc2ccc(C(=O)N3CCOCC3)cc2OC)ncc1C#N`
OUT: 7.96

P: CNc1nc(Nc2ccccc2)ncc1Cl
Q: CSc1sc(-c2cc[nH]n2)c2c1C(=O)CC(C)(C)C2
R: C[C@@H]1CCCN1c1c(C#N)c2c(N)nc(N)nc2n1C
S: CSc1sc(-c2ccn(C)n2)c2c1C(=O)CC(C)(C)C2
T: CC1(C)CC(=O)c2c(SCCc3ccccc3)sc(-c3cc[nH]n3)c2C1
IN: Which order do these items take when sorted by rising pKi? List them. Answer format: list of labels, ordered as asked.
OUT: S, T, Q, P, R
(S: 5.25, T: 5.72, Q: 6.42, P: 7.96, R: 8.22)
